Reference for the values: paper PMC10695737

assay: Polymorph screen, approximate solubility in solvents (UHPLC); type: physicochemical; settings: organic solvent or mixture, thermodynamic from solid; solvent Dichloromethane
ENDPOINT NAME: solubility (µg/mL)
Please give a number only; it is taken to be in µg/mL.

Tell us which solubility value is on record for O=c1c2nc(Br)n(C3OC4COP(O)(=S)OC4C3O)c2nc2[nH]c(-c3ccccc3)cn12 (stereo not shown)
30

---

Assay: Polymorph screen, approximate solubility in solvents (UHPLC)
Type: physicochemical
Details: aqueous with cosolvent or surfactant or cyclodextrin, thermodynamic from solid; solvent MeCN+H2O 1 : 1 v/v; solution
Experimental: A polymorph screen was done for cGMPSA‐TEA with a similar approach. An excess of the compound was slurried in a range of solvents, typically 20–40 mg in 1 mL. For screens where enough solid material was obtained, it was analyzed by XRPD to record the crystal modification.
ENDPOINT NAME: solubility

Tell us which solubility value is on record for O=c1c2nc(Br)n(C3OC4COP(O)(=S)OC4C3O)c2nc2[nH]c(-c3ccccc3)cn12 (stereo not shown)
> 40 mg/mL

---

experiment: Dynamic vapor sorption (DVS), water sorption as Δm; assay type: physicochemical; conditions: 0 % RH, after final desorption cycle 2 (D2), 25 °C
ENDPOINT NAME: Water sorption Δm (%)
Please give a number only; it is taken to be in %.

// solved cases for Water sorption Δm follow
COMPOUND: O=c1c2nc(Br)n([C@@H]3O[C@@H]4CO[P@@](O)(=S)O[C@H]4[C@H]3O)c2nc2[nH]c(-c3ccccc3)cn12.c1ccc(CCNCc2ccccc2)cc1
Water sorption Δm (%): 0.7
--
COMPOUND: O=c1c2nc(Br)n([C@@H]3O[C@@H]4COP(=O)([S-])O[C@H]4[C@H]3O)c2nc2[nH]c(-c3ccccc3)cn12.O=c1c2nc(Br)n([C@@H]3O[C@@H]4COP(=O)([S-])O[C@H]4[C@H]3O)c2nc2[nH]c(-c3ccccc3)cn12.[Ca+2] (stereo partly drawn)
Water sorption Δm (%): 1.9

Here is the next item to consider.
Tell us which Water sorption Δm value is on record for `NC(CO)(CO)CO.O=c1c2nc(Br)n([C@@H]3O[C@@H]4CO[P@@](O)(=S)O[C@H]4[C@H]3O)c2nc2[nH]c(-c3ccccc3)cn12`
3.3
